Assay: PAMPA permeability, liver total lipid extract (LTLE) membrane
Settings: Liver total lipid extract membrane, n=3
Recorded metric: Mean logPe

- Compound: "CC(C)c1nc(N(C)S(C)(=O)=O)nc(-c2ccc(F)cc2)c1/C=C/[C@@H](O)C[C@@H](O)CC(=O)O [rosuvastatin]"
  Bound type: "<"
  Endpoint result: -6.32
- Compound: "COCCc1ccc(OCC(O)CNC(C)C)cc1 (stereo not drawn) [metoprolol]"
  Bound type: "="
  Endpoint result: -4.4
- Compound: "CC(C)Cc1ccc(C(C)C(=O)O)cc1 (stereo not drawn) [ibuprofen]"
  Bound type: "="
  Endpoint result: -4.54
- Compound: "Nc1c(Br)cc(Br)cc1CN[C@H]1CC[C@H](O)CC1 [ambroxol]"
  Bound type: "="
  Endpoint result: -4.27
- Compound: "CCn1cc(C(=O)O)c(=O)c2cc(F)c(N3CCNCC3)nc21 [enoxacin]"
  Bound type: "="
  Endpoint result: -5.37
- Compound: "CCCCOc1cc(C(=O)NCCN(CC)CC)c2ccccc2n1 [dibucaine]"
  Bound type: "="
  Endpoint result: -4.56
- Compound: "CC(=O)CC(c1ccccc1)c1c(O)c2ccccc2oc1=O (stereo not drawn) [warfarin]"
  Bound type: "="
  Endpoint result: -4.86
- Compound: "O=C1CN=C(c2ccccc2)c2cc([N+](=O)[O-])ccc2N1 [nitrazepam]"
  Bound type: "="
  Endpoint result: -4.26
- Compound: "CC1Cc2ccccc2N1NC(=O)c1ccc(Cl)c(S(N)(=O)=O)c1 (stereo not drawn) [indapamide]"
  Bound type: "="
  Endpoint result: -4.61
